MEASUREMENT_TARGET: T1, prostate specific antigen (PSA) (human, UniProt P07288 25-261, limits assumed)
T1 construct: The antigen of the SPR study is only called 'PSA' (169 ug/ml, provided by Diaprost AB, Mw 30 000 Da); also called kallikrein III
T1 sequence (P07288 25-261 limits assumed): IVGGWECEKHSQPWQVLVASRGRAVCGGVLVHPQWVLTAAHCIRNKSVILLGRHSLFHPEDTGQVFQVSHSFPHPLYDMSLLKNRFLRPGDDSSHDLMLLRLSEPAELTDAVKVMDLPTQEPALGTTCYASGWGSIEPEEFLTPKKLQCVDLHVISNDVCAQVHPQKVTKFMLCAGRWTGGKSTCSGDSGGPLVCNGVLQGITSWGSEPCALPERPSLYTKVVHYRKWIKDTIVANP
TEST_METHOD_NOTES: SPR (Biacore 3000), PSA amine-coupled on CM4 chip, antibody in solution

[
  {
    "BINDER": "h5A10-DOTA (antibody, human IgG1, kappa, V domains shown, DOTA chelator conjugated to the antibody; sites and chain not stated, Humanised 5A10 IgG1/kappa conjugated with the chelator DOTA; also called h5A10-DOTA (141211)) VH: QVTLKESGPALVKPTQTLTLTCTFSGFSLSTTGMGVSWIRQPPGKALEWLAHIYWDDDKRYSTSLKTRLTISEDSSKNQVVLTMTNMDPVDTATYYCARKGYYGYFDYWGQGTLVTVSS VL: DIQMTQSPSSLSASVGDRVTVTCRASQNVNTDVAWYQQKPGKAPKALIFSTSYLQSGVPSRFSGSGSGTDFTLTISSLQPEDFATYYCQQYSNYPLTFGQGTKVEIKR",
    "ENDPOINT_UNIT": "M⁻¹ s⁻¹",
    "kon": 540000
  },
  {
    "BINDER": "h5A10-DTPA (antibody, human IgG1, kappa, V domains shown, DTPA chelator conjugated to the antibody; sites and chain not stated, Humanised 5A10 IgG1/kappa conjugated with the chelator DTPA; also called h5A10-DTPA (141203); DTPA-h5A10) VH: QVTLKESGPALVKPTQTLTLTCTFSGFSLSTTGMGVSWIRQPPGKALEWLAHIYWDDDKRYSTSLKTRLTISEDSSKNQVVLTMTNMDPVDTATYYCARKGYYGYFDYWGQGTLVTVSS VL: DIQMTQSPSSLSASVGDRVTVTCRASQNVNTDVAWYQQKPGKAPKALIFSTSYLQSGVPSRFSGSGSGTDFTLTISSLQPEDFATYYCQQYSNYPLTFGQGTKVEIKR",
    "ENDPOINT_UNIT": "M⁻¹ s⁻¹",
    "kon": 390000
  },
  {
    "BINDER": "humanised monoclonal antibody 5A10 (h5A10) (antibody, human IgG1, kappa, V domains shown, also called hu5A10 (141203); h5A10 (141203)) VH: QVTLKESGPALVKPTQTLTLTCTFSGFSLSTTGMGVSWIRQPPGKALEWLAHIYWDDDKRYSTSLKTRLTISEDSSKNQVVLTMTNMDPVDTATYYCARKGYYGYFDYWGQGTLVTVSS VL: DIQMTQSPSSLSASVGDRVTVTCRASQNVNTDVAWYQQKPGKAPKALIFSTSYLQSGVPSRFSGSGSGTDFTLTISSLQPEDFATYYCQQYSNYPLTFGQGTKVEIKR",
    "ENDPOINT_UNIT": "M⁻¹ s⁻¹",
    "kon": 620000
  }
]
